Reference for the values: the supplement of paper PMC7877785

Assay: self-splicing fitness, log relative to wild type (ln ratio); higher = more splicing; Tetrahymena group I intron in knt gene, E. coli kanamycin selection, DiMSum; sequences stand for … in CUCUCU…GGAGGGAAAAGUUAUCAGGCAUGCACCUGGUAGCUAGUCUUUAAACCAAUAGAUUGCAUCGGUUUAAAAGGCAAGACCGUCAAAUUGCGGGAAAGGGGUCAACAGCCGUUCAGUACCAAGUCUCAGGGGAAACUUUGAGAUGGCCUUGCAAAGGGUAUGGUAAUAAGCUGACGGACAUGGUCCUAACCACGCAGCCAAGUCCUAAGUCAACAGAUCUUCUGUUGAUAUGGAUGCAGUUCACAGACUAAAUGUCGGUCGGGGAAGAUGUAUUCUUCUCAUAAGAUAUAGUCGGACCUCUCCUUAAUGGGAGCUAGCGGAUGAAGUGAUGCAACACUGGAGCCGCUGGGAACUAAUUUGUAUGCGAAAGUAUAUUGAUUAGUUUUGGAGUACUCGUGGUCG;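 also: selection with 25 µg/mL kanamycin versus none on LB agar overnight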
Conditions: 37 °C
Please note: true (1) applies when self-splicing fitness (ln) is -2 or greater, and false (0) applies otherwise.

Check out these entries, answers already filled in.
In: Does the reported self-splicing fitness (ln) for `GACGAGCAAUAUUACGAGGG` fall at or above the -2 mark?
Out: false (0)

In: Could you please find out whether `UGAAAGCAAUAUUACGUGAG` has self-splicing fitness (ln) that meets -2 or exceeds it?
Out: true (1)

In: self-splicing fitness (ln) >= -2 for `UCCAAGCAAUAUUACGUGCG` ?
Out: true (1)

In: Check this sequence for self-splicing fitness (ln) at or above -2: `CCCCAGCAAUAUUACGGCAU`
Out: false (0)

Further cases:
In: Say whether `CAUUAGCAAUAUUACGGAGA` shows self-splicing fitness (ln) of -2 or more.
Out: false (0)

In: Could you please find out whether `GGGCAGCAAUAUUACGCGGC` has self-splicing fitness (ln) that meets -2 or exceeds it?
Out: true (1)

In: Record `CUCCAGCAAUAUUACGGCCU` ; criterion: self-splicing fitness (ln) no lower than -2. Met?
Out: true (1)

In: Tell me whether self-splicing fitness (ln) is at least -2 here: `CUACAGCAAUAUUACGCCCG`
Out: true (1)
